src = ChEMBL document CHEMBL2424619

Molecular target: Lethal(3)malignant brain tumor-like protein 3 (Homo sapiens, UniProt Q96JM7)
Sequence (Q96JM7 whole entry): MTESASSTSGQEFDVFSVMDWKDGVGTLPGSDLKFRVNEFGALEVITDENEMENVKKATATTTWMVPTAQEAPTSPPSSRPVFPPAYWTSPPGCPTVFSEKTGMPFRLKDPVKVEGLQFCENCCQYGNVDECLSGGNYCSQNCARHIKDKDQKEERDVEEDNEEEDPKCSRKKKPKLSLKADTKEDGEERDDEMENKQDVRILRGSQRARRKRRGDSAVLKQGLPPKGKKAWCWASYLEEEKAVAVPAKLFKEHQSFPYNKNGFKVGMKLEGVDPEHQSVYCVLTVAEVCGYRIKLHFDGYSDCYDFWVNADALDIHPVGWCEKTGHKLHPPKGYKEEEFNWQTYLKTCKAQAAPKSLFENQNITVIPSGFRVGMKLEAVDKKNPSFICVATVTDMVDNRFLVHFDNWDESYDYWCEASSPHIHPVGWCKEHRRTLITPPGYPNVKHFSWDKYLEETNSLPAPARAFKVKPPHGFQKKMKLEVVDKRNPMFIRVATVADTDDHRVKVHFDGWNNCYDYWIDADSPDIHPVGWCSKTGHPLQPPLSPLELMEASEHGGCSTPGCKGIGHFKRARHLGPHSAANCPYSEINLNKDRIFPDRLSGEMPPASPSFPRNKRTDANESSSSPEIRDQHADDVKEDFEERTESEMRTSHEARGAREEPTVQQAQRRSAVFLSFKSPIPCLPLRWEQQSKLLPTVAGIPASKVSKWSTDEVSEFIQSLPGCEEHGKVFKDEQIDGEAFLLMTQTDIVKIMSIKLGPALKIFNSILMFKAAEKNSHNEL
Assay: Inhibition of L3MBTL3 (unknown origin) after 30 mins by AlphaScreen assay
value.kind: IC50 (nM)
Answers are plain numbers, in nM.

compound	assay.target	recorded.number
O=C(c1ccc(C(=O)N2CCC(N3CCCC3)CC2)cc1)N1CCC(C2CCCN2)CC1 (centres undefined)	Lethal(3)malignant brain tumor-like protein 3 (Homo sapiens, UniProt Q96JM7)	120
O=C(c1ccc(C(=O)N2CC3(CCNC3)C2)cc1)N1CCC(N2CCCC2)CC1	Lethal(3)malignant brain tumor-like protein 3 (Homo sapiens, UniProt Q96JM7)	3600
CN1CCC(N2CCN(C(=O)c3ccc(C(=O)N4CCC(N5CCCC5)CC4)cc3)CC2)CC1	Lethal(3)malignant brain tumor-like protein 3 (Homo sapiens, UniProt Q96JM7)	830
O=C(c1ccc(C(=O)N2CCC(N3CCCC3)C2)cc1)N1CCC(N2CCCC2)CC1 (centres undefined)	Lethal(3)malignant brain tumor-like protein 3 (Homo sapiens, UniProt Q96JM7)	250
O=C(c1ccc(N2CCC(N3CCCC3)CC2)cc1)N1CCC(N2CCCC2)CC1	Lethal(3)malignant brain tumor-like protein 3 (Homo sapiens, UniProt Q96JM7)	170

Please state IC50 for every compound in the list that follows.
1. O=C(c1ccc(C(=O)N2CCCC(N3CCCC3)CC2)cc1)N1CCCC(N2CCCC2)CC1 (centres undefined)
2. O=C(c1ccc(C(=O)N2CCC(N3CCCC3)CC2)s1)N1CCC(N2CCCC2)CC1
3. O=C(c1ccc(C(=O)N2CCC(C3CCCN3)CC2)cc1)N1CCC(C2CCCN2)CC1 (centres undefined)
4. CN1CCN2CC(NC(=O)c3ccc(C(=O)N4CCC(N5CCCC5)CC4)cc3)CC2C1 (centres undefined)

Ans:
[110, 96, 640, 4600]

----------
Target: UniProtKB Q96JM7
Assay: Inhibition of L3MBTL3 (unknown origin) after 30 mins by AlphaScreen assay
value.kind: pIC50
One number for each entry, as −log10 of the molar value.

Please review the entries below; each comes with its answer.
molecule	pIC50
O=C(c1ccc(C(=O)N2CCC3(CCNC3)CC2)cc1)N1CCC(N2CCCC2)CC1	6.25
O=C(c1ccc(C(=O)N2CCC(N3CCCC3)CC2)cc1)N1CCC(C2CCNCC2)CC1	6.13

Please state pIC50 for every molecule in the list that follows.
1. O=C(c1ccc(C(=O)N2CCC(N3CCCC3)CC2)o1)N1CCC(N2CCCC2)CC1
2. O=C(c1c(F)c(F)c(C(=O)N2CCC(N3CCCC3)CC2)c(F)c1F)N1CCC(N2CCCC2)CC1
3. CN1CCCC1C1CCN(C(=O)c2ccc(C(=O)N3CCC(C4CCCN4C)CC3)cc2)CC1 (stereo not given)
4. C[N+]1(C2CCN(C(=O)c3ccc(C(=O)N4CCC(N5CCCC5)CC4)cc3)CC2)CCCC1
5. O=C(c1ccc(CN2CCC(N3CCCC3)CC2)cc1)N1CCC(N2CCCC2)CC1

Ans:
6.28
6.68
5.77
6.85
6.85

The molecule identified as CC(C1CCN(C(=O)c2ccc(C(=O)N3CCC(N4CCCC4)CC3)cc2)CC1)N1CCN(C)CC1 (stereo not given) registered its pIC50 at 6.52
